system: ACHN; experiment: NCI tumour cell line growth inhibition, 48 h
Activity calls are given as the source filed them. Cut-off read from the data, not from the text of the source: active = GI50 up to about 1.1 µM and inactive = higher.
Respond with a class label; see yes for active, no for inactive

Please share the test call associated with CCN(CC)CCCN(c1cc(OC)cc2nccnc12)S(=O)(=O)c1ccc(C)cc1 .
no

Please share the test call associated with Cn1c2ccccc2c2ccc3c(c21)C(=O)c1ccccc1C3=O .
no

Please share the test call associated with C=CCCCCn1c2ccccc2c2c(C)c3c[n+](C)ccc3c(C)c21 .
no

Please share the test call associated with Cc1nsc2cc(Cl)n(C)c(=O)c12 .
no

Please share the test call associated with COc1cc(C(=O)OC2CC(C)=CC[C@@]3(C)CC[C@](O)(C(C)C)C23)ccc1O (stereo partly specified) .
no

Please share the test call associated with COC1=CC(=O)C2C(C1=O)[C@@H]1c3ccccc3C[C@H]21 (stereo partly specified) .
no

Please share the test call associated with CN1N=CSC12C(=O)N(c1ccccc1)C(=O)N2c1ccccc1 (stereo unspecified) .
no

Please share the test call associated with Nc1nc2c(C(=O)NCc3cccs3)nnn2c2cccc(Cl)c12 .
no

Please share the test call associated with Nc1c(-c2ccc(Cl)c(Cl)c2)c2ccc([N+](=O)[O-])cc2c(=O)n1-c1nc2ccccc2s1 .
yes

Please share the test call associated with C[C@]12CCC[C@H](O)[C@H]1C[C@H](CO)CC2 .
no

Please share the test call associated with C=CCN1C[C@@H](C)N([C@@H](c2ccc(C(=O)N(CC)CC)cc2)c2cccc(OC)c2)C[C@@H]1C .
no

Please share the test call associated with CC(=O)NNC1=NN(C(C)=O)C2(S1)C(=O)Nc1ccc(Br)cc12 (stereo unspecified) .
no

Please share the test call associated with CC(=O)N1c2ccccc2C23CCN(C)CC4C(C)OCC(C4CC2=O)C13 (stereo unspecified) .
no

Please share the test call associated with Cc1cccc(/C=N/NC(=S)NCCc2ccccn2)n1 .
no

Please share the test call associated with [N-]=[N+]=Nc1ccc(S(=O)(=O)Oc2cc(OS(=O)(=O)c3ccc(N=[N+]=[N-])cc3)cc(OS(=O)(=O)c3ccc(N=[N+]=[N-])cc3)c2)cc1 .
no

Please share the test call associated with CCCCC/N=C/c1c(O)c(O)c(C(C)C)c2cc(C)c(-c3c(C)cc4c(C(C)C)c(O)c(O)c(/C=N/CCCCC)c4c3O)c(O)c12 .
no

Please share the test call associated with COc1cc(/C=C/c2ccc(Br)cc2)cc(OC)c1OC .
no

Please share the test call associated with C=C(C=O)c1c2c(nc3ccccc13)C(=O)c1ccccc1C2=O .
yes

Please share the test call associated with O=[N+]([O-])c1ccc2nc(Cl)n[n+]([O-])c2c1 .
no

Please share the test call associated with CCOP(=O)(OCC)/C(C#N)=C/c1ncc[nH]1 .
no

Please share the test call associated with COc1ccc(-c2cc(-c3ccccc3)n(C3OC(COC(C)=O)C(OC(C)=O)C(OC(C)=O)C3OC(C)=O)c(=S)c2C#N)cc1 (stereo unspecified) .
no

Please share the test call associated with CC(=O)C1=C(C)O[C@@H]2O[C@H](COCc3ccccc3)[C@@H](OCc3ccccc3)[C@H](O)[C@@H]2S1 .
no

Please share the test call associated with COC(=O)c1ccccc1C1CN=NC12Cc1c(ccc(C)c1C)C2=O (stereo unspecified) .
no

Please share the test call associated with O=C(O)Cc1ccc(-n2nnc3c(=O)[nH][nH]c(=O)c32)cc1 .
no

Please share the test call associated with CCN(CC)c1c(C(=O)/C=C/c2ccccc2)c(-c2ccccc2)nn(C)c1=O .
no

Please share the test call associated with CC(=O)OCC1OC(n2ccc(=O)[nH]c2=O)C(OC(C)=O)C(OC(C)=O)C1OC(C)=O (stereo unspecified) .
no

Please share the test call associated with COc1cccc(N2N=C3c4ccccc4-n4c(nc5ccccc54)C3C2N)c1 (stereo unspecified) .
no

Please share the test call associated with CCC1CN2CCc3cc(OC)c(OC)cc3C2CC1CC1c2cc(OC)c(OC)cc2CCN1C(=O)C1CCCN1 (stereo unspecified) .
no

Please share the test call associated with NC(=O)C(N)=O .
no

Please share the test call associated with COc1ccc(C)cc1-c1ccc(-c2cc(C)ccc2OC)o1 .
no

Please share the test call associated with CC/C=C/C(=O)CC(O)(C(F)(F)F)C(F)(F)F .
no

Please share the test call associated with C=C1CC2(CCS(=O)(=O)c3ccccc32)OC1=O (stereo unspecified) .
no

Please share the test call associated with CC1SC2=NC3=C(c4ccccc4C3=O)C(c3ccc(Cl)cc3)N2C1=O (stereo unspecified) .
no

Please share the test call associated with Clc1cccc(Cl)c1C1SCc2nc3cc4ccccc4cc3n21 (stereo unspecified) .
no

Please share the test call associated with Cc1ccc(C(=O)NC2CCCCC2)cc1/N=N/N(C)C .
no

Please share the test call associated with CCN(CC)CCNc1ccc2nnn3c4ccc(O)cc4c(=O)c1c23 .
yes

Please share the test call associated with COC1(OC)CCC2C1C1CCC(OC)(OC)C21 (stereo unspecified) .
no

Please share the test call associated with O=C1CSC(c2cc3cc(Br)ccc3nc2Cl)N1c1ccc(Cl)cc1 (stereo unspecified) .
no

Please share the test call associated with Cc1cc2c(=O)cc(-c3ccc(C(=O)O)cc3)oc2c(C(=O)O)c1C .
no

Please share the test call associated with CC(CCc1ccccc1)NCC(O)n1c(/N=N/N(C)C)nc2c1c(=O)n(C)c(=O)n2C (stereo unspecified) .
no

Please share the test call associated with COc1ccc(C2Oc3c(cccc3-c3c(-c4ccc(O)cc4)oc4cc(O)cc(O)c4c3=O)C(=O)C2O)cc1O (stereo unspecified) .
no

---

test system: KM12; assay: NCI tumour cell line growth inhibition, 48 h
Calls of active or inactive are those of the source. Rule as the data show it: active = GI50 up to about 1.1 µM and inactive = higher. Where a SMILES comes first, the peptide text is derived from it. The star is where a group is joined. CH2Cl = ClC*
Respond with a class label; see active, inactive

Please share the test call associated with CC(=O)c1c2c(cc3c1CC1(Cc4cc5c(cc4C1)C(=O)CCC5)C3)CCCC2 (stereo unspecified) .
inactive

Please share the test call associated with CC1=C(C#N)C(=C(C#N)C#N)OC1(C)Cc1ccccc1 (stereo unspecified) .
inactive

Please share the test call associated with C=C1C2CCCC1C1(S(C)(=O)=O)CCCCC21O (stereo unspecified) .
inactive

Please share the test call associated with Cc1c(C=C(C#N)C#N)c(=O)n(C)c(=O)n1C .
inactive

Please share the test call associated with O=C(O)c1cc(C(=O)O)nc(C(=O)O)c1 .
inactive

Please share the test call associated with CN1C[C@@H]2CC(=O)CC[C@@H]2C[C@H]1C#N .
inactive

Please share the test call associated with CC(N)C(=O)OCN1C(=O)C2C3C=CC(C2C1=O)C1C2C(=O)N(COC(=O)C(C)N)C(=O)C2C31 (stereo unspecified) .
inactive

Please share the test call associated with O=C1/C(=C/C=C/c2ccccc2)CCC1CNc1ccc(Br)cc1 (stereo unspecified) .
inactive

Please share the test call associated with CN(C)C(=O)NCCN1CCCCCc2ccccc21 .
inactive

Please share the test call associated with CC(=O)NC(CC(C)C)C(=O)NC(Cc1ccccc1)C(=O)CCl (stereo not drawn) (Ac-Leu-Phe-CH2Cl; configuration not given here) .
inactive

Please share the test call associated with COc1cc(N(CCC#N)CCC#N)ccc1/C=C1\SC(=S)NC1=O .
inactive

Please share the test call associated with N=C1c2ccccc2C(=O)c2c(NCCNCCO)ccc(O)c21 .
inactive

Please share the test call associated with CCOC(=O)CO/N=C\C1=CC(=O)C2CC1C2(C)C (stereo unspecified) .
inactive

Please share the test call associated with O=S(=O)(O)c1ccc2c(/N=N/c3cccc4ccccc34)c(O)ccc2c1 .
inactive

Please share the test call associated with O=C1c2ccccc2NC(=O)C2C1C(c1ccccc1)CC2(O)c1ccccc1 (stereo unspecified) .
inactive

Please share the test call associated with Clc1ncnc2c1nc(C#Cc1ccccc1)n2C1CCCCO1 (stereo unspecified) .
inactive

Please share the test call associated with O=c1c2cc([N+](=O)[O-])ccc2[nH]n1Cc1ccccc1Cl .
inactive

Please share the test call associated with Cc1c2c(c(C)n1-c1ccccc1)C(=O)N(CCSC(=N)N)C2=O .
inactive

Please share the test call associated with O=[N+]([O-])c1ccc2nc(Cl)n[n+]([O-])c2c1 .
inactive

Please share the test call associated with CSc1nc(SC)c2c(C)cn(C3OC(C)C(O)C(O)C3O)c2n1 (stereo unspecified) .
inactive

Please share the test call associated with C[C@@H]1O[C@@H](O[C@H]2CC[C@]3(C=O)[C@H]4CC[C@]5(C)[C@@H](C6=CC(=O)OC6)CC[C@]5(O)[C@@H]4CC[C@]3(O)C2)[C@H](O)[C@H](O)[C@H]1O [CONVALLATOXIN] .
active

---

Would you kindly list GI50 for each of these compounds?
tested on: Hs-578T; assay: NCI tumour cell line growth inhibition, 48 h
Activity calls are given as the source filed them. Rule as the data show it: active = GI50 up to about 1.1 µM and inactive = higher.

Could you share which GI50 value was measured for COc1ccc(-c2oc3cc(OC)c(OC)c(O)c3c(=O)c2OC)cc1 ?
24 µM (inactive)

Could you share which GI50 value was measured for Cc1c(C=C(C#N)C#N)c(=O)n(C)c(=O)n1C ?
> 100 µM (inactive)

Could you share which GI50 value was measured for CCC(C)C(=O)OCC(=O)c1ccc(-c2ccccc2)cc1 (stereo unspecified) ?
45.9 µM (inactive)

Could you share which GI50 value was measured for CCn1c(-c2ccccc2)nc2c1C(=O)c1ccccc1C2=O ?
27.2 µM (inactive)

Could you share which GI50 value was measured for CN(C)c1ccc2nc3c(C(=O)O)cc(O)c(O)c3[o+]c2c1 ?
68.4 µM (inactive)

Could you share which GI50 value was measured for CC/C=C/C(=O)CC(O)(C(F)(F)F)C(F)(F)F ?
19 µM (inactive)

The measurements presented in this section are drawn from ChEMBL document CHEMBL1201862.
